binders and their reported OD
Target: T1, IHF from Haemophilus influenzae (Haemophilus influenzae, UniProt P43723 1-96)
T1 construct: also called IHF (Hi); H. influenzae; not shown: poly-histidine tag
T1 sequence: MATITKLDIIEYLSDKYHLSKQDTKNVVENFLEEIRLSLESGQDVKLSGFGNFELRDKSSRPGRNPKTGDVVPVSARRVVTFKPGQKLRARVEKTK
Test: ELISA
READOUT_KIND: OD (OD)

1. TRL1216 (antibody, V domains shown) VH: QVQLVESGGGVVQPGGSLRVSCAASAFSFRDYGIHWVRQAPGKGLQWVAVISHDGGKKFYADSVRGRFTISRDNSENTLYLQMNSLRSDDTAVYYCARLVASCSGSTCTTQPAAFDIWGPGTLVTVSS VL: DIMLTQPPSVSVSPGQTARITCSGDALPKKYTYWYQQKSGQAPVLLIYEDRKRPSEIPERFSAFTSWTTATLTITGAQVRDEADYYCYSTDISGDIGVFGGGTKLTVL	0.06
2. TRL1070 (antibody, V domains shown) VH: QVQLVQSGGTLVQPGGSLRLSCAASGFTFSYYSMSWVRQAPGKGLEWVANIKHDGTERNYVDSVKGRFTISRDNSEKSLYLQMNSLRAEDTAVYYCAKYYYGAGTNYPLKYWGQGTRVTVSS VL: DILMTQSPSSLSASVGDRVTITCRASQGIRNDLGWYQQKPGKAPKLLIYAASSLQSGVPSRFSGSGSGTDFTLTISSLQPEDFATYYCLQDYNYPLTFGGGTKVEIKR	0.11
3. TRL1218 (antibody, V domains shown) VH: QVQLLESGADMVQPGRSLRLSCAASGFNFRTYAMHWVRQAPGKGLEWVAVMSHDGYTKYYSDSVRGQFTISRDNSKNTLYLQMNNLRPDDTAIYYCARGLTGLSVGFDYWGQGTLVTVSS VL: DIVLTQSASVSGSPGQSITISCTGTSSDVGGYNYVSWYQQHPGKAPKLMIYDVTTRPSGVSDRFSGSKSGNTASLTISGLQAEDEADYYCSSYSSGSTPALFGGGTQLTVL	0.04
